# Tested on: Hep 3B2
# Assay comment: Antiproliferative activity against human Hep3B cells assessed as inhibition of cell growth at 10 uM measured after 72 hrs by CCK8 assay
# Format: functional
This section presents compounds with their documented inhibition at 10 µM values.
Quantity measured: inhibition at 10 µM (%)

INSERT INTO assay_data (cpd_smiles, study_system, quantity_measured, assay_result) VALUES
  ('C=C(F)C(=O)Nc1ccc(-c2ccc(NC(=O)Nc3ccc(CN4CCN(C)CC4)c(C(F)(F)F)c3)c(C)c2)cn1', 'Hep 3B2', 'inhibition at 10 µM', 91.2),
  ('C=CC(=O)Nc1ccc(-c2ccc(NC(=O)Nc3ccc(CN4CCN(C)CC4)c(C(F)(F)F)c3)cc2)cn1', 'Hep 3B2', 'inhibition at 10 µM', 95.8),
  ('C=CC(=O)Nc1ccc(-c2ccc(NC(=O)Nc3ccc(CN4CCN(C)CC4)c(C(F)(F)F)c3)cc2C)cn1', 'Hep 3B2', 'inhibition at 10 µM', 95.3),
  ('C/C=C/C(=O)Nc1ccc(Oc2ccc(NC(=O)Nc3ccc(CN4CCN(C)CC4)c(C(F)(F)F)c3)c(C)c2)cn1', 'Hep 3B2', 'inhibition at 10 µM', 87),
  ('C=CC(=O)Nc1ccc(-c2ccc(NC(=O)Nc3ccc(CN4CCN(CC)CC4)c(C(F)(F)F)c3)c(C)c2)cn1', 'Hep 3B2', 'inhibition at 10 µM', 85.4),
  ('CC#CC(=O)Nc1ccc(Oc2ccc(NC(=O)Nc3ccc(CN4CCN(C)CC4)c(C(F)(F)F)c3)c(C)c2)cn1', 'Hep 3B2', 'inhibition at 10 µM', 92.3),
  ('C=CC(=O)Nc1ccc(-c2ccc(NC(=O)Nc3ccc(CN4CCN(C)CC4)c(C(F)(F)F)c3)c(C)c2)cn1', 'Hep 3B2', 'inhibition at 10 µM', 94.6),
  ('Cc1cc(-c2ccc(NC(=O)CCl)nc2)ccc1NC(=O)Nc1ccc(CN2CCN(C)CC2)c(C(F)(F)F)c1', 'Hep 3B2', 'inhibition at 10 µM', 87.6);
